- assay_procedure: self-splicing fitness, log relative to wild type (ln ratio); higher = more splicing; Tetrahymena group I intron in knt gene, E. coli kanamycin selection, DiMSum; sequences stand for … in CUCUCU…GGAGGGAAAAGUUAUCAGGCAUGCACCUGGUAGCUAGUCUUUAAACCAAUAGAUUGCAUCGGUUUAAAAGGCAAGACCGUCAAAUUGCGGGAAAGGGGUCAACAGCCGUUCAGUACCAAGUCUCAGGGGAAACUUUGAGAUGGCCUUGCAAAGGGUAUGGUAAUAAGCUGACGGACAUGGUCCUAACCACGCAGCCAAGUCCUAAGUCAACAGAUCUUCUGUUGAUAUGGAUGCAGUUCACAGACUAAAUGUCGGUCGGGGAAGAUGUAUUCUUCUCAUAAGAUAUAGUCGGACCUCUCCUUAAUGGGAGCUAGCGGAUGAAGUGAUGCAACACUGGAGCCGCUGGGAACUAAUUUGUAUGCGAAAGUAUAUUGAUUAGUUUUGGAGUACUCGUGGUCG;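 note: selection with 25 µg/mL kanamycin versus none on LB agar overnight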
- reported_conditions: 30 °C
readout_label: self-splicing fitness (ln)

Illustrative cases are given below, each with its answer.
sequence_content: GUGCAGCAAUAUUACGAUAA
result: -2.55
//
sequence_content: CCCGAGCAAUAUUACGACUU
result: -3.24

For each of the sequences below, state self-splicing fitness (ln).
1. GUCUAGCAAUAUUACGCUUG
2. ACAUAGCAAUAUUACGUACA

1. -1.22
2. -2.25

Provide the reported self-splicing fitness (ln) of each entry below, same order.
1. UACUAGCAAUAUUACGAGCU
2. CGUAAGCAAUAUUACGAACG

1: -2.4; 2: -3.04

// each listed sequence needs a value for self-splicing fitness (ln)
1. ACUGAGCAAUAUUACGCUUC
2. GUCGAGCAAUAUUACGUCUG
3. GCAAAGCAAUAUUACGCCUG
4. UGCUAGCAAUAUUACGGCGG
5. UUUUAGCAAUAUUACGACAA
6. GCCAAGCAAUAUUACGGCUG
7. ACCAAGCAAUAUUACGACCC
8. UUCAAGCAAUAUUACGAACG

1. -3.57
2. -3.5
3. -2.21
4. -1.15
5. -0.409
6. -3.81
7. -1.37
8. -4.29

Provide self-splicing fitness (ln) for all items below, preserving their order.
1. UGACAGCAAUAUUACGUCUU
2. AUUCAGCAAUAUUACGUCUA
3. CCUAAGCAAUAUUACGUCUC
4. CGGCAGCAAUAUUACGGACA
5. AGUUAGCAAUAUUACGUAAA

-0.839
-0.634
-3.01
-0.835
-2.85

Dear colleague, could you please provide self-splicing fitness (ln) for the sequences listed below?
1. ACUAAGCAAUAUUACGUCAG
2. GAAAAGCAAUAUUACGUCUA
3. AGACAGCAAUAUUACGAUCC
4. CGAUAGCAAUAUUACGACCA
5. CGCCAGCAAUAUUACGGUAA

1. -2.63
2. -0.367
3. -0.233
4. -0.39
5. -0.8

Fill in self-splicing fitness (ln) for each of the 3 sequences listed.
1. AGUAAGCAAUAUUACGGUAU
2. CGGGAGCAAUAUUACGAGAC
3. CAUGAGCAAUAUUACGUUGU

1. -2.52
2. -3.18
3. -4.13

# batch size: 7; output self-splicing fitness (ln) per entry
1. AGACAGCAAUAUUACGAAGA
2. GCAUAGCAAUAUUACGUCUC
3. GGCAAGCAAUAUUACGGUUA
4. UUUAAGCAAUAUUACGACUA
5. GAGCAGCAAUAUUACGUAGC
6. CAACAGCAAUAUUACGGGGA
7. GAGUAGCAAUAUUACGGCUA

[-3.75, -1.85, -0.0834, 0.0508, -0.99, -2.24, -1.11]
